Span values, listed per item
target: T1, human G-protein-coupled receptor family C group 5 member D (GPRC5D) (human, UniProt Q9NZD1 1-345); assay: FACS, CHO-K1/GPRC5D
T1 construct: whole, on cells; also called human GPRC5D protein
T1 sequence (Q9NZD1 whole entry): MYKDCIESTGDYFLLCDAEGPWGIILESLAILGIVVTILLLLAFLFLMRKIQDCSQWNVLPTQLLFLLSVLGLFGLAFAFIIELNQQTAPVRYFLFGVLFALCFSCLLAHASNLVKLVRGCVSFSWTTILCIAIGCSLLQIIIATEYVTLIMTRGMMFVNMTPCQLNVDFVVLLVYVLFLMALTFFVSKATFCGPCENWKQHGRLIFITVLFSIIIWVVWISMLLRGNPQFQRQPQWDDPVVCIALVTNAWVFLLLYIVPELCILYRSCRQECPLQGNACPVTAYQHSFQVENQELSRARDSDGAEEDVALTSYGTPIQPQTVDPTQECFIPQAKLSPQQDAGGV
QUANTITY_KIND: Span

{"BINDER": "37-H2L3 (antibody, V domains shown, humanized 37B9C4, VH v2 x VL v3) VH: EVQLVESGGGLVQPGGSLRLSCAASGFTFSDYWMNWVRQSPGKGLEWVAEIRLKSNNYATHYAESVKGRFTISRDNAKSSLYLQMNSLRAEDTAVYYCTRPLLWFRRYYAMDYWGQGTLVTVSS VL: DIQMTQSPSSLSASVGDRITITCSASQGISNYLNWYQQKPGKTVKLLIYYTSSLHSGVPSRFSGSGSGTDYTLTISSLQPEDFATYYCQQYSKLPFTFGSGTKLEIK", "QUANTITY_KIND": "Span", "NUMERIC_RESULT": 160000}
{"BINDER": "37B9C4-XI (antibody, V domains shown, also called 37B9C4 (chimeric); 37-XI) VH: EVNLEESGGGLVQPGGSMKLSCVASGFTFSDYWMNWVRQSPEKGLEWVAEIRLKSNNYATHYAESVKGRFTISRDDSKSSVYLQMNNLRAEDTGIYYCTRPLLWFRRYYAMDYWGQGTSVTVSS VL: DIQMTQTTSSLSASLGDRITISCSASQGISNYLNWYQQKPDGTVKLLIYYTSSLHSGVPSRFSGSGSGTDYSLTISNLEPADIATYYCQQYSKLPFTFGSGTKLEIK", "QUANTITY_KIND": "Span", "NUMERIC_RESULT": 177000}
